- Tested on: UO-31 renal
- Measurement description: NCI-60 one-dose screen, 48 h (100 = growth as untreated, 0 = no growth, -100 = all killed)
- Applied conditions: 10 µM unless noted
Compounds without any hit were thinned out: in the full panel of roughly 83,000, 20% have a hit.
Field 'label' (enum: Yes / No). Set to Yes when growth is strictly under 50%; else No.

Recorded results for 8 molecules are shown here.
# Molecule, Class label
rows = [
    ("CN(C)c1nc(NCCNS(=O)(=O)c2ccc(C(=O)/C=C/c3ccc(C(F)(F)F)cc3)cc2)nc(N2CCOCC2)n1", "Yes"),
    ("COc1ccc2[nH]c(=O)cc(-n3ncc(C(=O)/C=C/c4cc(OC)c(OC)c(OC)c4)c3C)c2c1", "Yes"),
    ("O=C1Nc2cc(-c3ccc(NS(=O)(=O)c4ccc(C(F)(F)F)cc4)cc3)ccc2/C1=C/c1ccc[nH]1", "Yes"),
    ("COc1ccc(-c2cc(-c3cc(OC)c(OC)c(OC)c3)[nH]c(=O)c2C#N)cc1", "Yes"),
    ("CN(C)C(=O)c1cc(-c2ccc3ncnc(N4CCc5cc(F)c(Cl)cc54)c3c2)cnc1N", "Yes"),
    ("Clc1ccccc1Nc1nnc(-c2c[nH]c3ccccc23)o1", "Yes"),
    ("N#Cc1cc(-c2ccnc(Nc3ccc(N4CCN(C5COC5)CC4)cc3)n2)ccc1N1CCCC1", "Yes"),
    ("Cn1ncc2c(N)nc(Oc3ccccc3-c3ccccc3)nc21", "Yes"),
]

Identify whether the molecule `O=C1/C(=C/c2cccc3c2OCO3)Cc2c(F)cc(Br)cc21` records growth below 50%.
No

Input `Nc1cc(-c2c[nH]c3ccc(F)cc23)nc2cc(-c3c[nH]c4ccccc34)nn12` ; condition: growth strictly below 50%. Does it hold?
Yes

In the record for O=C1CC(c2ccc(I)cc2)OC2C=Cc3ccccc3C12 (configuration not stated) , is growth less than 50%?
No

Given the entry `COc1ccc(-c2nc3ccc(-c4nnc(SCc5ccccc5)o4)cc3[nH]2)cc1` , would its reported growth be below 50%?
Yes

Bench note: check whether O=C(c1ccc(Cl)cc1)C1[C@H](c2ccccc2Cl)[C@@H](c2ccccc2)NC12C(=O)Nc1ccccc12 (some centres not stated) shows growth below 50%
Yes

Strictly below 50%: is that where growth of `N#Cc1c(NC(=O)N2CCOCC2)n(-c2ccc(OC(F)(F)F)cc2)c2cc(F)ccc12` sits?
No

Report whether reported growth is lower than 50% (strictly) for `CN1CCc2c(sc3ncnc(N/N=C/c4cccc(Cl)c4Cl)c23)C1`
Yes

Lab log: compare recorded growth with 50%; is it strictly lower for O=C(c1ccc(Cl)cc1)C1[C@H](c2ccccc2Cl)[C@@H](c2ccccc2)NC12C(=O)Nc1ccc(Cl)cc12 (some centres not stated) ?
Yes

Does the reported growth of `COc1cc2cc(C(=O)N3C[C@@H](CCl)c4c3cc(OC(=O)N(CCC(=O)N3CCN(C)CC3)C3CCCCC3)c3ccccc43)[nH]c2c(OC)c1OC` stay below 50%?
Yes

Is the reported growth for `O=C(N=Nc1c(O)[nH]c2ccc(Br)cc12)c1ccc2nc(-c3ccc(Cl)cc3)[nH]c2c1` strictly below 50%?
No

Report whether reported growth is lower than 50% (strictly) for `CCCCNc1ccc2c3c(cccc13)C(=O)N(c1cccc(-c3nn(-c4ccccc4)cc3-c3nc4ccccc4s3)c1)C2=O`
No

Does the reported growth of the following molecule sit strictly below 50%? `Nc1nnc(-c2cncc(Br)c2)c(-c2c[nH]c3ccc(Cl)cc23)n1`
Yes

Dear colleague, could you confirm whether growth of `O=C(Cn1c(/C=C/c2ccc([N+](=O)[O-])cc2)nc2ccccc2c1=O)Nc1ccccc1` falls below 50%? Thanks.
No

---

- Tested on: CAKI-1 renal
- Measurement description: NCI-60 one-dose screen, 48 h
- Applied conditions: 10 µM unless noted
Compounds without any hit were thinned out: in the full panel of roughly 83,000, 20% have a hit. Calls of active or inactive are those of the source. The calls were made as follows: active = growth percent below 10; inactive = the rest.
I would appreciate it if you answered using one of these outcomes: yes (active), no (inactive)

Illustrative cases are given below, each with its answer.
# Compound, Class label
records = [
    ("Clc1ccc2c(NCCNC34CC5CC(CC(C5)C3)C4)ccnc2c1", "yes"),
    ("Oc1ccc(F)c(Nc2nc(SCCN3CCOCC3)nc3c2cnn3CC(Cl)c2ccc(Br)cc2)c1 (stereo not drawn)", "no"),
]

Lab log entry: `COc1cc(NC(=O)CSc2nnc(-c3ccc(-c4nc5ccc(Cl)cc5[nH]4)cc3)o2)cc(OC)c1OC` — outcome as called in the assay?
no

What call does the record list for `Cc1cccc(-c2ccccc2Oc2ccc3nnc(Cl)n3n2)c1` ?
no

Can you look up the reported call for `O=C(CSc1nc2sc3c(c2c(=O)n1-c1ccc(Cl)cc1)CCCC3)N/N=C/C=C/c1ccccc1` for me?
no

Write down the call the test reported for this compound. Item: COC(=O)c1c(C(=O)OC)c2ccc3c4ccccc4ccc3n2c1C(=O)C(C)Br (stereo not drawn)
no

Give the logged outcome of this assay for the following compound: `COc1cccc2nc(Nc3cccc(NC(=O)c4ccc(CN5CCN(C)CC5)c(C(F)(F)F)c4)c3)ccc12`
yes

Hi, sorry to bother you, what did the test record for `COc1ccc(-c2cc(-c3cc(OC)c(OC)c(OC)c3)[nH]c(=O)c2C#N)cc1` ?
no

Check the results log: what was the call for `N#Cc1cc(-c2ccnc(Nc3ccc(N4CCN(C5COC5)CC4)cc3)n2)ccc1N1CCCC1` ?
no

Field: outcome | Entry: COc1cc(C2CC(c3ccc(Cl)cc3)=Nc3c(N)nc(N)nc3N2)ccc1Oc1nc(Nc2ccc(F)cc2)nc(N(C)C)n1 (stereo not drawn)
no

Hi team, can someone confirm the assay call for `O=C1NC(=S)/C(=C/c2cn(-c3ccccc3)nc2-c2ccccc2)S1` ?
no

Kindly provide the recorded test outcome for the following compound: `CN(C)C(=O)c1cc(-c2ccc3ncnc(N4CCc5cc(F)c(Cl)cc54)c3c2)cnc1N`
yes

Which outcome did this test record for the compound `Cc1cc(Cl)ccc1NC(=O)Nc1ccc(-c2ccc3c(c2)NC(=O)/C3=C\c2ccc[nH]2)cc1` ?
no

What classification did `COc1ccc2c(c1)c(-c1cc(N)n3nc(-c4c[nH]c5ccccc45)cc3n1)cn2C` end up with in this test?
yes

Which outcome did this test record for the compound O=C1/C(=C/C=C/c2ccco2)SC(=S)N1CC(=S)C1C=CS(=O)(=O)C1 (stereo not drawn) ?
no

Could you kindly confirm the outcome this assay logged for `COc1ccc(-c2nc3ccc(-c4nnc(SCC(=O)Nc5ccc(/C(C)=N\O)cc5)o4)cc3[nH]2)cc1` ?
no

Please share the test call associated with `Nc1nn2c(-c3cc4cc(Br)ccc4oc3=O)ccnc2c1N=Nc1ccccc1` .
no

Entry `Cc1ccc2c(c1)/C(=C/C(=O)c1cc3ccccc3oc1=O)C(=O)N2` : call = ?
no

Just curious, what result did CN(C)c1nc(NCCNS(=O)(=O)c2ccc(C3=Nc4c(N)nc(N)nc4NC(c4ccc(C(F)(F)F)cc4)C3)cc2)nc(N2CCOCC2)n1 (stereo not drawn) get here?
no

GET /call?item= `O=C(CSc1nnc(-c2ccc(-c3nc4ccc(Cl)cc4[nH]3)cc2)o1)Nc1ccc(Cl)cc1` returns the recorded outcome of this test.
yes

---

- System: UACC-257 melanoma
- Measurement description: NCI-60 one-dose screen, 48 h (100 = growth as untreated, 0 = no growth, -100 = all killed)
- Applied conditions: 10 µM unless noted
The panel holds about 83,000 compounds, 20% with a hit somewhere; the sample as a whole holds those more often.
Response field label takes satisfied when growth is strictly below 70% and not satisfied in all other cases.

Example entries begin here.
# Compound, Class label
rows = [
    ("COc1cc(CNC(=O)C[C@H](C)CCC=C(C)C)ccc1OCc1cn(-c2ccccc2F)nn1", "not satisfied"),
    ("O=C(N/N=C/c1ccc(Cl)cc1)c1ccc(OCc2nc3ccc(Cl)cc3[nH]2)cc1", "satisfied"),
    ("Cn1cc(-c2cc(N)n3nc(-c4c[nH]c5ccc(F)cc45)cc3n2)c2cc(Br)cnc21", "not satisfied"),
    ("CC1=C(C(=O)Nc2ccccc2)C(c2ccc3ccccc3c2)n2c(nc3ccccc32)N1 (stereo not drawn)", "not satisfied"),
    ("Nc1nnc(-c2cncc(Br)c2)c(-c2c[nH]c3ccc(Br)cc23)n1", "not satisfied"),
]

Here's the next entry for you.
Is growth strictly under 70% for the entry `COC(=O)c1c(C(=O)OC)c2c3ccccc3c3ccccc3n2c1C(=O)C(C)(C)C` ?
not satisfied

---

- Test system: A498 renal
- Measurement description: NCI-60 one-dose screen, 48 h (100 = growth as untreated, 0 = no growth, -100 = all killed)
- Applied conditions: 10 µM unless noted
- Procedure: Growth inhibition of the A498 human tumor cell line is measured as a screen for anti-cancer activity. Cells are grown in 96 well plates and exposed to the test compound for 48 hours. Compounds are tested at a single concentration, which is 10^-5 M for most compounds. The reported endpoint is percent growth (GI% or GIPRCNT), where numbers from 0 - 100% represent growth inhibition, and numbers from -100% - 0 represent cell death. For example, a value of 40 represents 60% growth inhibition. […]
This is part of a sample that, as a whole, favours compounds with a hit. Of some 83,000 tested, about 20% had one in any assay.
For each of the molecules below, state its growth.
One number for each entry, in %.

# Molecule, growth / %
records = [
    ("COc1ccc2[nH]c(O)c(N=Nc3nc(-c4ccc(Br)cc4)cs3)c2c1", -78),
    ("NS(=O)(=O)c1ccc(Nc2nc(N/N=C/c3cc(Br)c(O)c(Br)c3)nc(Nc3ccccc3)n2)cc1", 102),
    ("O=C(Cc1c(-c2ccccc2[N+](=O)[O-])n(-c2ncnc3c2c(-c2ccccc2)c(-c2ccccc2)n3Cc2ccccc2)[nH]c1=O)c1ccc(Cl)c(Cl)c1", 56.1),
]

For every item in the list below, what is its measured growth?
1. O=C(Cn1c(/C=C/c2ccc([N+](=O)[O-])cc2)nc2ccccc2c1=O)Nc1ccccc1
2. COc1ccc2[nH]c(O)c(N=Nc3nc(-c4ccc(Cl)cc4)cs3)c2c1
3. COc1ccc(C(=O)/C=C/c2ccc3c(c2)OCCO3)cc1S(N)(=O)=O
4. COc1ccc(N=Nc2c(N)nn3c(-c4cc5cc(Br)ccc5oc4=O)ccnc23)cc1
5. CN(C)c1nc(NCCNS(=O)(=O)c2ccc(C(=O)/C=C/c3ccc(C(F)(F)F)cc3)cc2)nc(N2CCOCC2)n1
6. Nc1nnc(CS(=O)(=O)c2ccccc2)s1
7. CN(C)CCCNC(=S)Nc1ccc(/C=C/c2ccc(Cl)cc2)cc1
8. COc1cc(/C=N/NC(=O)c2ccc(OCc3nc4ccc(Cl)cc4[nH]3)cc2)cc(OC)c1OC

1: 143; 2: -89.7; 3: 109; 4: 36.1; 5: 72.5; 6: 137; 7: -47.7; 8: 121

Record growth per entry; entries follow.
1. N#Cc1c(-c2ccc(F)cc2)nc(SCc2ccccc2)nc1N1CCNCC1
2. CCCCCCCCc1ccc(C(=O)Nc2ccc(C)cc2C(=O)O)cc1
3. c1n[nH]cc1-c1nc2ccc3[nH]ncc3c2c2c1CC1(CC2)COC1

[-13.8, 109, 38.6]
